target.entity: Peroxisome proliferator-activated receptor gamma (Homo sapiens)
Sequence (P37231 whole entry): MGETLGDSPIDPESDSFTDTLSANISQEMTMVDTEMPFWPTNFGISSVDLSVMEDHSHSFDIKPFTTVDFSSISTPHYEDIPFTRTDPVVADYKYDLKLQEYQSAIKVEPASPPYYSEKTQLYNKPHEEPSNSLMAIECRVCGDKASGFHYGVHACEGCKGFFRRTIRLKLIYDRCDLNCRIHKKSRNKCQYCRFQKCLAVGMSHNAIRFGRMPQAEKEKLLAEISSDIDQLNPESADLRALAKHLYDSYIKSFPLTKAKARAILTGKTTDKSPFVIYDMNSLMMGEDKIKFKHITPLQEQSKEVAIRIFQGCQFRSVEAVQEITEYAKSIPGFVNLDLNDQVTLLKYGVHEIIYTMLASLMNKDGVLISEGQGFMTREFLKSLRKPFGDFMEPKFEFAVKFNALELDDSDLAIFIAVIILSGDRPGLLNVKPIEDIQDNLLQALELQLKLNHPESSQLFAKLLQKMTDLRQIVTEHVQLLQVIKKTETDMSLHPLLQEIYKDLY
assay.overview: Binding affinity to human PPARgamma
Entries and their pKd
For clarity, pKd is expressed as the negative log10 of concentration in mol/L.

compound: O=C(NC(Cc1c[nH]c2cc(OCc3ccccc3)ccc12)C(=O)O)c1ccc(Cl)cc1 (configuration not stated)
pKd: 5.16

Next compound, please.
Task item: What measured pKd goes with O=C(NC(Cc1c[nH]c2cc(OCc3ccccc3)ccc12)(C(=O)O)C(=O)O)c1ccc(Cl)cc1 ?
Reply: 5.06
